assay: chemical genetic growth profiling, strain panel (AID 1159580);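 further: tested at 20 µM; growth read once vehicle control cultures reached saturation at 30 °C; 1 = growth at the plate median or of vehicle wells; lower values mean less growth of the strain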
protocol-conditions: S. cerevisiae deletion strains, growth OD, locus YIL125W, strain kgd1, hits give low values
Hit rate of the full screen: of about 5,500 compounds, about 2,000 (36%) were called active. About 18% were inconclusive and are not listed. This is one part of the list.
observation-type: normalized growth
Keep it simple and answer with nothing but the number.

Example results:
C/C=C(\C)C(=O)OC1[C@@H]2C=C3C4CC(=O)O[C@@H](c5ccoc5)[C@]4(C)CCC3[C@@](C)(C2=O)[C@@H](C(O)C(=O)OC)C1(C)C (stereo not given in full)    1.01
NCCS    1.01
O=C(O)c1cc2cc(Cl)ccc2[nH]1    0.979
O=C1c2ccccc2C(=O)c2c1ccc(O)c2O    0.864

Q) Please list normalized growth recorded for the molecule COC(=O)C[C@H]1C(C)(C)[C@@H](OC(C)=O)[C@@H]2CC3C4CC(=O)O[C@@H](c5ccoc5)[C@]4(C)CCC3[C@@]1(C)C2=O (stereo not given in full)
A) 1

Q) Identify measured normalized growth corresponding to Cc1cc(O)c2c(c1O)C(=O)c1c(O)cc(C)c(O)c1C2=O
A) 1

Q) Report normalized growth for CCCCCN=C(N)N/N=C\c1c[nH]c2ccc(OC)cc12
A) 1.01

Q) Identify measured normalized growth associated with Fc1ccc(C(c2ccc(F)cc2)N2CCN(C/C=C/c3ccccc3)CC2)cc1
A) 0.986

Q) Supply recorded normalized growth for Nc1ncnc2c1ncn2[C@@H]1O[C@H](CO)[C@@H](O)[C@@H]1O here.
A) 1.02

Q) Quickly give me recorded normalized growth for Cc1ncc([N+](=O)[O-])n1CCO
A) 0.989

###

assay: chemical genetic growth profiling, strain panel (AID 1159580)
protocol-conditions: S. cerevisiae deletion strains, growth OD, locus YJL187C, strain SWE1 (second series), hits give low values
The campaign covered roughly 5,500 compounds. About 2,000 (36%) were called active. Roughly 18% stayed inconclusive and do not appear here. The list shows a part of the results.
Listed next: entries and their corresponding normalized growth.

Recorded results for 8 compounds are shown here.
COc1c(O)cc(O)cc1O    0.997 (inactive)
CC(=O)OCC(=O)[C@@]1(O)CCC2C3CCC4=CC(=O)CC[C@]4(C)[C@@]3(F)[C@@H](O)C[C@@]21C (some centres not stated)    1.01 (inactive)
CNC(=O)CSP(=S)(OC)OC    1.02 (inactive)
c1coc(CNc2ncnc3nc[nH]c23)c1    0.992 (inactive)
COC(=O)C[C@H]1C(C)(C)C(OC(C)=O)[C@]2(O)C=C3C4CC(=O)O[C@@H](c5ccoc5)[C@]4(C)CCC3[C@@]1(C)C2=O (some centres not stated)    1.02 (inactive)
Cc1cccc(N(C)C(=S)Oc2ccc3ccccc3c2)c1    0.974 (inactive)
COc1cc(O)c(C(C)=O)c(OC)c1    1.01 (inactive)
CN1Cc2c(N)cccc2C(c2ccccc2)C1 (configuration not stated)    0.983 (inactive)

// moving on: another record for normalized growth
Q) Given COc1cc(O)c(C)c(O)c1 , respond with its normalized growth.
A) 1.01 (inactive)

###

assay: chemical genetic growth profiling, strain panel (AID 1159580)
protocol-conditions: S. cerevisiae deletion strains, growth OD, locus YOR184W, strain ser1, hits give low values
The whole screen tested about 5,500 compounds, of which about 2,000 (36%) were called active. Another 18% or so got no clear call; they are omitted. The list shows a part of the results.
observation-type: normalized growth
Answer as a number with no unit attached.

As a guide, the following entries are already answered.
C[C@]12C=CC(=O)C=C1CCC1C2C(=O)C[C@@]2(C)C1CC[C@]2(O)C(=O)CO (stereo partly drawn)    0.973
CCCc1nc(C(C)(C)O)c(C(=O)OCc2oc(=O)oc2C)n1Cc1ccc(-c2ccccc2-c2nn[nH]n2)cc1    0.995

Let us move to another entry and its normalized growth.
Q) # return recorded normalized growth for entry C/C=C(\C)C(=O)OC1[C@@H]2C=C3C4CC(=O)O[C@@H](c5ccoc5)[C@]4(C)CCC3[C@@](C)(C2=O)[C@@H](C(O)C(=O)OC)C1(C)C (stereo partly drawn)
A) 1

###

assay: chemical genetic growth profiling, strain panel (AID 1159580)
protocol-conditions: S. cerevisiae deletion strains, growth OD, locus YBL061C, strain skt5, hits give low values
In all, about 5,500 compounds went through this assay and about 2,000 (36%) were called active. About 18% were inconclusive and are not listed. The list shows a part of the results.
observation-type: normalized growth
Respond with the number and no other words.

CC(=O)O[C@H]1CC2CCC3C(CC[C@@]4(C)C3C[C@H]([N+]3(C)CCCCC3)[C@@H]4OC(C)=O)[C@@]2(C)C[C@@H]1[N+]1(C)CCCCC1 (stereo partly drawn)    1.01
C[C@]12C=CC(=O)C=C1CCC1C2C(=O)C[C@@]2(C)C1CC[C@]2(O)C(=O)CO (stereo partly drawn)    0.992

Q) Note down normalized growth recorded for CC(=O)Oc1ccc2c(c1)CCC1C2CC[C@@]2(C)C1CC[C@@H]2OC(C)=O (stereo partly drawn)
A) 0.977

Q) Tell me measured normalized growth for O=C(O)CCCN1C(=O)c2cccc3cccc(c23)C1=O please.
A) 1.01

Q) Please indicate normalized growth recorded for CCC(=O)O[C@H]1CCC2C3CCc4cc(O)ccc4C3CC[C@@]21C (stereo partly drawn)
A) 0.98

Q) Entry Cc1ncc([N+](=O)[O-])n1CCO needs its normalized growth filled in; supply it.
A) 0.98

Q) Given CC(=O)Oc1ccc2c(c1)CCC1C2CCC2(C)C1CC(OC(C)=O)C2OC(C)=O (stereo not drawn) , respond with its normalized growth.
A) 0.997

Q) Report normalized growth for C[C@]12CCC3c4ccc(O)cc4CCC3C1CC[C@@H]2OC(=O)CCC1CCCC1 (stereo partly drawn)
A) 1

###

assay: chemical genetic growth profiling, strain panel (AID 1159580)
protocol-conditions: S. cerevisiae deletion strains, growth OD, locus YJR075W, strain HOC1, hits give low values
The campaign covered roughly 5,500 compounds. About 2,000 (36%) were called active. Inconclusive results (about 18%) are left out. Some of the results follow.
Documented normalized growth across a set of molecules
Please reply with the value in numeric form only.

NCCS    1.01

Q) Write down normalized growth measured for item Cc1ccc(S(=O)(=O)/C(C#N)=N\O)cc1
A) 1.03

Q) Read the entry COC(=O)c1ccccc1-n1cccc1C(=O)OC and write its reported normalized growth.
A) 1.05

Q) Specify measured normalized growth for COc1ccc(-c2c(C(=O)O)sc(SC)c2C#N)cc1 .
A) 1.01

Q) Indicate the recorded normalized growth value for this molecule: CCSC(SCC)[C@H](O)[C@@H](O)[C@H](O)CO
A) 0.994

###

assay: chemical genetic growth profiling, strain panel (AID 1159580);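 further: tested at 20 µM; growth read once vehicle control cultures reached saturation at 30 °C; 1 = growth at the plate median or of vehicle wells; lower values mean less growth of the strain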
protocol-conditions: S. cerevisiae deletion strains, growth OD, locus YPR119W, strain clb2, hits give low values
Among all 5,500 compounds or so, about 2,000 (36%) were called active. Inconclusive results (about 18%) are left out. The list shows a part of the results.
Measured normalized growth, listed per entry.
Hey, just send me the number, nothing else.

A selection of reference data follows.
COP(=S)(OC)SCn1nnc2ccccc2c1=O    0.994
COc1ccc2c(=O)c(-c3cc4c(cc3OC)OCO4)coc2c1    1.02
COc1c2c(cc3occ(-c4ccc5c(c4)OCO5)c(=O)c13)OC(C)(C)C=C2    0.964

Next up:
Q) State, in one line, measured normalized growth of CN1Cc2c(N)cccc2C(c2ccccc2)C1 (centres undefined)
A) 1.01

###

assay: chemical genetic growth profiling, strain panel (AID 1159580);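 further: tested at 20 µM; growth read once vehicle control cultures reached saturation at 30 °C; 1 = growth at the plate median or of vehicle wells; lower values mean less growth of the strain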
protocol-conditions: S. cerevisiae deletion strains, growth OD, locus YGL253W, strain hxk2
Hit rate of the full screen: of about 5,500 compounds, about 2,000 (36%) were called active. Another 18% or so got no clear call; they are omitted. No stated cut-off is given here; in the data, active means normalized growth mostly below about 0.91 (no sharp cut-off); inconclusive means no clear call, values can overlap the other calls; inactive means mostly above about 0.92. Some of the results follow.
Reply using exactly one outcome from active, inactive

OCCN1CCN(CCCN2c3ccccc3Sc3ccc(Cl)cc32)CC1    inactive
CC(=O)OC1CCC2C3CCc4cc(O)ccc4C3CCC12C (configuration not stated)    inactive
O=C(O)CCCN1C(=O)c2cccc3cccc(c23)C1=O    inactive

Read the next record carefully.
Q) State the result this test recorded for O=C1c2ccccc2-c2cccc3cccc1c23 .
A) active

###

Below, each entry is listed alongside its reported normalized growth.
assay: chemical genetic growth profiling, strain panel (AID 1159580);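 further: tested at 20 µM; growth read once vehicle control cultures reached saturation at 30 °C; 1 = growth at the plate median or of vehicle wells; lower values mean less growth of the strain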
protocol-conditions: S. cerevisiae deletion strains, growth OD, locus YPR163C, strain tif3, hits give low values
Out of some 5,500 compounds screened, about 2,000 (36%) were called active. Roughly 18% stayed inconclusive and do not appear here. The list shows a part of the results.
# respond with the number and nothing more

Worked examples, 3 molecules total:
O=[N+]([O-])/N=C1/NCCN1Cc1ccc(Cl)cc1    0.982
COc1cc2c(cc1-c1coc3c4c(c(OC)cc3c1=O)OC(C)(C)C=C4)OCO2    0.986
CCS(=O)(=O)CCn1c([N+](=O)[O-])cnc1C    1.01

# ---- query molecule ----
Q) For the molecule O=c1c(-c2ccc3c(c2)OCO3)coc2cc(O)ccc12 , give its measured normalized growth value.
A) 0.978

Where do the numbers come from? From PubChem BioAssay AID1159580.
